System: CAKI-1
MEASUREMENT_NOTES: NCI tumour cell line growth inhibition, 48 h
Active and inactive are the calls of the source. No stated cut-off is given here; in the data, active = GI50 up to about 1.1 µM and inactive = higher.
PARAMETER: GI50

Here's what some known entries look like.
- MOLECULE: "CCCCCCCC(=O)OC[n+]1ccc(-c2c(COC(=O)NC(C)C)c(COC(=O)NC(C)C)c3n2CCC3)cc1"
  GI50: "18.6 µM (inactive)"
- MOLECULE: "COc1ccccc1NC(=S)N/N=C/c1c(C)n(C)n(-c2ccccc2)c1=O"
  GI50: "> 100 µM (inactive)"
- MOLECULE: "Cc1c(-c2ccccc2)n(C)c2cn[nH]c(=O)c12"
  GI50: "49.5 µM (inactive)"
- MOLECULE: "Cc1c(/N=C\\c2ccc(N(CCC#N)CCC#N)cc2)c(=O)n(-c2ccccc2)n1C"
  GI50: "> 100 µM (inactive)"
- MOLECULE: "N#Cc1sc2nc3c(c(-c4ccccc4)c2c1N)CCCC3"
  GI50: "> 100 µM (inactive)"

Quick one: give me GI50 for each item below, same order please.
1. COc1ccc(CCNC(=O)CCCCCO)cc1OC
2. CC(C)O/N=C/c1cc(NC(=S)OC(C)C)ccc1Cl
3. CCOC(=O)C(Cc1ccc2c(c1)CCC2)Cc1ccc2c(c1)CCC2
4. CC(=O)O/C=C\OC1CCCC1(c1ccccc1)c1ccccc1 (stereo unspecified)

Outgoing:
1: > 100 µM (inactive); 2: 22.9 µM (inactive); 3: > 100 µM (inactive); 4: 4.5 µM (inactive)

Could you report GI50 for every entry in the following list?
1. COc1ccc(NC(=O)/C(Cc2nc3ccccc3nc2O)=N\O)c(OC)c1
2. O=c1[nH]c2c(c(=O)[nH]1)SSC2

Outgoing:
1: > 100 µM (inactive); 2: 18.9 µM (inactive)

----------
Please respond with reported GI50 for every item in the list.
Test system: NCI-H23
MEASUREMENT_NOTES: NCI tumour cell line growth inhibition, 48 h
Active and inactive are the calls of the source. Cut-off read from the data, not from the text of the source: active = GI50 up to about 1.1 µM and inactive = higher.

- COMPOUND: "Cc1ccc(N(C=O)c2c([N+](=O)[O-])cc([N+](=O)[O-])c3c2=[N+]([O-])CN=3)cc1"
  STUDY_SYSTEM: "NCI-H23"
  GI50: "23.5 µM (inactive)"

Each of the following entries comes with a recorded value; kindly state GI50 for each.
1. CCOc1ccc(NC(=O)CCc2nnc(SC)o2)cc1
2. CCOC(=O)/C(C#N)=C/c1ccnc2ccccc12

Outgoing:
1: > 100 µM (inactive); 2: 31.8 µM (inactive)

Would you mind giving GI50 for every compound in the list below?
1. O=C(Nc1ccc(Cl)cc1)NS(=O)(=O)c1c(-c2ccccc2)oc2ccccc2c1=O
2. CC1=NN(C(=O)CC(=O)N(C(=O)c2ccccc2Cl)c2ccc(C)cc2)C(=O)C1/N=N/c1ccc([N+](=O)[O-])cc1 (stereo not given)
3. CC(=O)c1sc(Nc2ccc(Cl)c(Cl)c2)nc1C
4. CCN(CC)CCCCC1CCN(CC(=O)N2c3ccccc3NC(=O)CC2C)CC1 (stereo not given)
5. Cc1cc(/C=C/c2cc[n+](C)c3ccccc23)c(O)c2ncccc12

Outgoing:
1: 67 µM (inactive); 2: 47.3 µM (inactive); 3: > 100 µM (inactive); 4: > 100 µM (inactive); 5: 1.7 µM (inactive)

For each listed entry, give its GI50.
1. COC(=O)C[C@H]1CCC2(OCCO2)[C@]1(C)C(=O)OC
2. O=C1NC2(NC(=O)C1=O)Nc1ccccc1S2

Outgoing:
1. > 100 µM (inactive)
2. > 63 µM (inactive)
